Tested on: Platelet
Test: Antiplatelet activity against adenosine diphosphate-induced platelet aggregation in human blood at 6.25 x 10^-4 M measured for 6 mins by multiplate electrical impedance aggregometry
Format: functional, cell-based
Here, each record is paired with measured AUC data.

Some solved entries appear below for comparison.
{"smiles-string": "C[C@@H]1O[C@@H](OC[C@H]2O[C@@H](Oc3c(-c4ccc(OCCOS(=O)(=O)[O-])c(OCCOS(=O)(=O)[O-])c4)oc4cc(OCCOS(=O)(=O)[O-])cc(O)c4c3=O)[C@H](OS(=O)(=O)[O-])[C@@H](OS(=O)(=O)[O-])[C@@H]2OS(=O)(=O)[O-])[C@H](OS(=O)(=O)[O-])[C@H](OS(=O)(=O)[O-])[C@H]1OS(=O)(=O)[O-].[Na+].[Na+].[Na+].[Na+].[Na+].[Na+].[Na+].[Na+].[Na+]", "AUC": "330 AU.min"}
{"smiles-string": "C[C@@H]1O[C@@H](OC[C@H]2O[C@@H](Oc3c(-c4ccc(OS(=O)(=O)[O-])c(OS(=O)(=O)[O-])c4)oc4cc(OS(=O)(=O)[O-])cc(OS(=O)(=O)[O-])c4c3=O)[C@H](OS(=O)(=O)[O-])[C@@H](OS(=O)(=O)[O-])[C@@H]2OS(=O)(=O)[O-])[C@H](OS(=O)(=O)[O-])[C@H](OS(=O)(=O)[O-])[C@H]1OS(=O)(=O)[O-].[Na+].[Na+].[Na+].[Na+].[Na+].[Na+].[Na+].[Na+].[Na+].[Na+]", "AUC": "230 AU.min"}

Data point: "O=S(=O)([O-])OC[C@H]1O[C@@H](Oc2cc(/C=C/c3ccc(OS(=O)(=O)[O-])cc3)cc(OS(=O)(=O)[O-])c2)[C@H](OS(=O)(=O)[O-])[C@@H](OS(=O)(=O)[O-])[C@@H]1OS(=O)(=O)[O-].[Na+].[Na+].[Na+].[Na+].[Na+].[Na+]" ; AUC = 173 AU.min
